// provenance: patent US12630523B2

# ASSAY SYSTEM: HPV16 E7 protein (Human papillomavirus type 16)
# Construct: endogenous in cells; host or cells: CaSki cells (HPV16-positive cervical carcinoma)
# Sequence (P03129 whole entry): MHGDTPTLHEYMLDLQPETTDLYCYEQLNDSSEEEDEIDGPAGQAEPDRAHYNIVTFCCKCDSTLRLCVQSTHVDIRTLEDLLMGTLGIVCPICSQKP
# Format: cell-based
# RUN PARAMETERS: CaSki cells; adjusted degradation, CHX steady state set to 100% degradation
MEASURED METRIC: % Dad (%)
All answers are understood in %, so give the number only.

Reference set (2 entries):
Enquiry: Tell me the measured % Dad of Cc1ccc(CN2C(=O)c3ccccc3C(C(=O)NCCN(C)C)C2c2ccc(C(F)(F)F)cc2)cc1 (stereo not drawn) [OC377] , please.
Return: 35

Enquiry: Value lookup for % Dad; key = COc1cc2c(cc1OC)[C@@H](C(=O)Nc1cccc(N3CCN(C)CC3)c1)[C@H](c1ccc(C(F)(F)F)cc1)N(Cc1ccc(C)cc1)C2=O (relative stereo) [OC971]
Return: 26

Continue with the next compound.
Enquiry: Look at this compound and give its reported % Dad. Cc1ccc(CN2C(=O)c3ccccc3[C@H](C(=O)Nc3cccc(N4CCN(C)CC4)c3)[C@@H]2c2ccc(C(F)(F)F)cc2)cc1 [OC246]
Return: 56

* * *

# TEST DESCRIPTION: Pharmacokinetics of VSP034 and VSP035 after oral administration of a liposomal formulation
# Assay type: in vivo, female Sprague-Dawley rats
# RUN PARAMETERS: female, Sprague-Dawley, rat, in vivo, po, 100 mg/kg, Vz/F, Median
MEASURED METRIC: Vd/F (L/kg)
Please respond with the number in L/kg and leave the unit unwritten.

Enquiry: // query Vd/F value for entry CN1CCC(CN2C(=O)c3ccccc3[C@@H](C(=O)Nc3cccc(N4CCN(C)CC4)c3)[C@@H]2c2ccc(C(F)(F)F)cc2)CC1
Return: 0.994

* * *

# Tested on: peripheral blood mononuclear cells (PBMC)
# TEST DESCRIPTION: Monolayer SRB assay, PBMC
# Type: cell-based
pEC50: −log10 of the molar value.
MEASURED METRIC: pEC50

Enquiry: # get_value(readout='pEC50', item= Cc1ccc(CN2C(=O)c3ccccc3[C@H](C(=O)Nc3cccc(N4CCN(C)CC4)c3)[C@@H]2c2ccc(C(F)(F)F)cc2)cc1 )
Return: < 4.00

* * *

# TEST DESCRIPTION: Pharmacokinetics of VSP034 and VSP035 after oral administration of a liposomal formulation
# Type: in vivo, female Sprague-Dawley rats
# RUN PARAMETERS: female, Sprague-Dawley, rat, in vivo, po, 100 mg/kg, AUC0-inf, Median
MEASURED METRIC: AUC(0-inf) (ng·h/mL)
All answers are understood in ng·h/mL, so give the number only.

Enquiry: Could you tell me which AUC(0-inf) is on file for CN1CCC(CN2C(=O)c3ccccc3[C@H](C(=O)Nc3cccc(N4CCN(C)CC4)c3)[C@H]2c2ccc(C(F)(F)F)cc2)CC1 ?
Return: 1480

# context switch: different compound, same AUC(0-inf)
Enquiry: GET /values?readout=AUC(0-inf)&item= CN1CCC(CN2C(=O)c3ccccc3[C@@H](C(=O)Nc3cccc(N4CCN(C)CC4)c3)[C@@H]2c2ccc(C(F)(F)F)cc2)CC1
Return: 613

* * *

# ASSAY SYSTEM: HPV16 E7 protein (Human papillomavirus type 16)
# Construct: endogenous in cells; host or cells: CaSki cells (HPV16-positive cervical carcinoma)
# Type: cell-based
# RUN PARAMETERS: CaSki cells; adjusted degradation, CHX steady state set to 100% degradation
Class boundaries, taken from values of % Dad, are as follows: zone 1: < 20%; zone 2: ≥ 20% and < 50%; zone 3: ≥ 50%

Please review the following examples before continuing.
Enquiry: Please let me know in which category the item Cc1ccc(CN2C(=O)c3ccccc3C(C(=O)N3CCN(C)CC3)C2c2ccc(Cl)cc2)cc1 (centres unmarked) [OC256] belongs.
Return: zone 1

Enquiry: Each compound maps to one class by % Dad. Which class for Cc1ccc(CN2C(=O)c3ccccc3C(C(=O)NCc3ccc(N(C)C)cc3)C2c2ccc(Cl)cc2)cc1 (centres unmarked) [OC254] ?
Return: zone 1

Enquiry: Returns: class label. Input: COc1ccc2c(c1)C(=O)N(Cc1ccc(C)cc1)[C@@H](c1ccc(C(F)(F)F)cc1)[C@@H]2C(=O)Nc1cccc(N2CCN(C)CC2)c1 (relative stereo) [OC969]
Return: zone 3

Enquiry: Which band does Cc1ccc(CN2C(=O)c3ccccc3[C@@H](C(=O)Nc3ccc(N4CCN(C)CC4)cc3)[C@@H]2c2ccc(C(F)(F)F)cc2)cc1 (relative stereo) [OC972] fall in?
Return: zone 2

Then this compound:
Enquiry: Class? Entry: Cc1ccc(CN2C(=O)c3ccccc3C(C(=O)NCc3cccnc3)C2c2ccc(Cl)cc2)cc1 (centres unmarked) [OC255]
Return: zone 1

* * *

# ASSAY SYSTEM: HPV16 E7 protein (Human papillomavirus type 16)
# Construct: endogenous in cells; host or cells: CaSki cells (HPV16-positive cervical carcinoma)
# Assay type: cell-based
# RUN PARAMETERS: CaSki cells; adjusted degradation, CHX steady state set to 100% degradation
Each entry below carries its recorded % Dad.
Please reply with the bare figure in % and do not write the unit itself.

Enquiry: Which measured % Dad value corresponds to Cc1ccc(CN2C(=O)c3ccccc3[C@@H](C(=O)Nc3cccc(N4CCN(C)CC4)c3)[C@@H]2c2ccc(C(F)(F)F)nc2)cc1 (relative stereo) ?
Return: 37

Enquiry: Which value of % Dad has been reported for CN1CCN(c2cccc(NC(=O)[C@@H]3c4ccccc4C(=O)N(Cc4cccnc4)[C@H]3c3ccc(C(F)(F)F)cc3)c2)CC1 (relative stereo) in the records?
Return: 54

Enquiry: Field request: % Dad | item: CN1CCC(CN2C(=O)c3ccccc3[C@@H](C(=O)Nc3cccc(N4CCN(C)CC4)c3)[C@@H]2c2ccc(C(F)(F)F)cc2)CC1 (racemic)
Return: 68

Enquiry: Look up % Dad: Cc1ccc(CN2C(=O)c3ccccc3C(C(=O)NCCN(C)C)C2c2ccc(Cl)cc2)cc1 (stereo not drawn)
Return: 19

More entries:
Enquiry: Reported % Dad, molecule CN(C)CCNC(=O)C1c2ccccc2C(=O)N(Cc2ccc(C(F)(F)F)cc2)C1c1ccc(C(F)(F)F)cc1 (stereo not drawn) : ____
Return: 48

Enquiry: Suppose we examine the molecule Cc1ccc(CN2C(=O)c3ccccc3C(C(=O)Nc3cccc(N4CCN(C)CC4)c3)C2c2ccc(Cl)c(Cl)c2)cc1 (stereo not drawn) ; what % Dad value has been reported?
Return: 0
